These data points were gathered from ChEMBL document CHEMBL1148467.

Target: Peroxisome proliferator-activated receptor gamma (Homo sapiens, UniProt P37231)
Sequence (P37231 whole entry): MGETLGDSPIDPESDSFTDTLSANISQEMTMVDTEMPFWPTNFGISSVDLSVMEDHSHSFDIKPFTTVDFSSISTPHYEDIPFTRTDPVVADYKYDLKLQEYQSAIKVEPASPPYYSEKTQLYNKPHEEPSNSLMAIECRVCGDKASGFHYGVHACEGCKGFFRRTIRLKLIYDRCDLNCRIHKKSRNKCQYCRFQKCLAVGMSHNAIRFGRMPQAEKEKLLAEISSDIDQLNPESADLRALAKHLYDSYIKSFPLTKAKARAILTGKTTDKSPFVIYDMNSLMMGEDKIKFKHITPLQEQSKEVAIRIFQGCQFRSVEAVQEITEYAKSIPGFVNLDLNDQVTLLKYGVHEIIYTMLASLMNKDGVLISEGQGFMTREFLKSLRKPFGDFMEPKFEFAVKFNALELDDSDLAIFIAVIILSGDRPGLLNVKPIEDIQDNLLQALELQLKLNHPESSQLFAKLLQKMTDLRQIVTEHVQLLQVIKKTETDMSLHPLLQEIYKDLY
Lab note: compare EC50 with 300 nM, writing satisfied if less and not satisfied if equal or more.

- compound: "CCCCCCN1C(=O)[C@@H](CCOc2ccccc2CC(=O)O)Oc2ccccc21"
  class_assignment: "satisfied"
- compound: "CC(C)CCCCN1C(=O)C(CCOc2ccccc2CC(=O)O)Oc2ccccc21 (stereo not drawn)"
  class_assignment: "satisfied"
- compound: "O=C(O)Cc1ccccc1OCCC1Oc2ccccc2N(CCCCCCO)C1=O (stereo not drawn)"
  class_assignment: "satisfied"
- compound: "CC(C)(O)CCCCN1C(=O)C(CCOc2ccccc2CC(=O)O)Oc2ccccc21 (stereo not drawn)"
  class_assignment: "not satisfied"
- compound: "CCCCCCCCCCN1C(=O)C(CCOc2ccccc2CC(=O)O)Oc2ccccc21 (stereo not drawn)"
  class_assignment: "not satisfied"

Hi there! Is EC50 for O=C(O)Cc1ccccc1OCCC1Oc2ccccc2N(CCO)C1=O (stereo not drawn) below 300 nM, do you know? not satisfied

Does O=C(O)CCCCCN1C(=O)C(CCOc2ccccc2CC(=O)O)Oc2ccccc21 (stereo not drawn) have EC50 strictly under 300 nM? not satisfied

Just wondering, is EC50 of CN1C(=O)C(CCOc2ccccc2CC(=O)O)Oc2ccccc21 (stereo not drawn) below 300 nM? not satisfied

hey, is EC50 for COCCCCN1C(=O)C(CCOc2ccccc2CC(=O)O)Oc2ccccc21 (stereo not drawn) lower than 300 nM or not? satisfied

Hello, I'm reviewing records and need to know if EC50 of O=C(O)Cc1ccccc1OCCC1Oc2ccccc2N(CCCC2CCCC2)C1=O (stereo not drawn) is below 300 nM. Could you check? not satisfied

Say whether its EC50 is strictly beneath 300 nM. Entry: CC(F)(F)CCCCN1C(=O)C(CCOc2ccccc2CC(=O)O)Oc2ccccc21 (stereo not drawn) satisfied

I wonder whether CC(=O)CCCCN1C(=O)C(CCOc2ccccc2CC(=O)O)Oc2ccccc21 (stereo not drawn) has EC50 below 300 nM. Can you tell? satisfied

Does the reported EC50 of the following compound sit strictly below 300 nM? CS(=O)(=O)NCCCCCCN1C(=O)C(CCOc2ccccc2CC(=O)O)Oc2ccccc21 (stereo not drawn) not satisfied

Does this compound meet the criterion EC50 < 300 nM? O=C(O)Cc1ccccc1OCCC1Oc2ccccc2N(CCCCCCCO)C1=O (stereo not drawn) satisfied
